Target: T1, Human CD3 on Human CD3+ Jurkat cells (human, UniProt P07766 23-207)
T1 construct: whole, on cells; CD3 complex on cells; also called hCD3
T1 sequence (P07766 23-207): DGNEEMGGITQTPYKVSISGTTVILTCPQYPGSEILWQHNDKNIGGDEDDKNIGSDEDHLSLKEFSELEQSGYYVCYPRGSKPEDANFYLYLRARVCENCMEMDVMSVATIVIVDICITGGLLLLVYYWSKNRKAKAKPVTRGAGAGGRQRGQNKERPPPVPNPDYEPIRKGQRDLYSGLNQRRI
Test: cell binding hCD3, fold over background
Measurement Type: Cell Binding hCD3 (FOB)
Write the number in FOB without appending the unit.

Known results for binders:
| Binder | Recorded Number |
| --- | --- |
| ADI-45974 (antibody, V domains shown, also called Ab10) VH: QVQLVQSGAEVKKPGASVKVSCKASGFNIKDYYMHWVRQAPGQRLEWIGWIDLENANTVYDAKFQGRVTITRDTSASTAYMELSNLRSEDTAVYYCARDAYGRYFYDVWGQGTLVTVSS VL: DIVMTQSPDSLAVSLGERATINCKSSQSLLNARTGKNYLAWYQQKPGQPPKLLIYWASTRESGVPDRFSGSGSGTDFTLTISSLQAEDVAVYYCKQSYFRRTFGGGTKVEIK | 47 |
| ADI-42594 (antibody, V domains shown, also called Ab1) VH: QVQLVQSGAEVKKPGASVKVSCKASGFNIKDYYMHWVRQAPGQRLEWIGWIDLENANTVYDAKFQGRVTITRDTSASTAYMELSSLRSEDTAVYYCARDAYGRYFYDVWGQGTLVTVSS VL: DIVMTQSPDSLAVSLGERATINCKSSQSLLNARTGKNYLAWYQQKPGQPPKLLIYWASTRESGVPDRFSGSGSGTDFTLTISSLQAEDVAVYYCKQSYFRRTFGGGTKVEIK | 36 |
| ADI-46381 (antibody, V domains shown, also called Ab43) VH: QVQLVQSGAEVKKPGASVKVSCKASGFNIKDYYMHWVRQAPGQRLEWIGWIDLENANTVYDTKFQGRVTITRDTSASTAYMELSSLRSEDTAVYYCARDAYGRYFYDVWGQGTLVTVSS VL: DIVMTQSPDSLAVSLGERATINCKTSQGLLNARTNKNYLAWYQQKPGQPPKLLIYWASTRESGVPDRFSGSGSGTDFTLTISSLQAEDVAVYYCVQSYFRRTFGGGTKVEIK | 71 |
| ADI-45972 (antibody, V domains shown, also called Ab8) VH: QVQLVQSGAEVKRPGASVKVSCKASGFNIKDYYMHWVRQAPGQRLEWIGWIDLENANTVYDAKFQGRVTITRDTSASTAYMELSSLRSEDTAVYYCARDAYGRYFYDVWGQGTLVTVSS VL: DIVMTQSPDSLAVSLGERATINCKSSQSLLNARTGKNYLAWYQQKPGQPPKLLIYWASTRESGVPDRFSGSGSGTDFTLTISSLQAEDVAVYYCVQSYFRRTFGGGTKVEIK | 32 |
| ADI-46374 (antibody, V domains shown, also called Ab37) VH: QVQLVQSGAEVKKPGASVKVSCKASGFNIKDYYMHWVRQAPGQRLEWIGWIDLNNANTVYDAKFQGRVTITRDTSASTAYMELSSLRSEDTAVYYCARDAYGRYFYDVWGQGTLVTVSS VL: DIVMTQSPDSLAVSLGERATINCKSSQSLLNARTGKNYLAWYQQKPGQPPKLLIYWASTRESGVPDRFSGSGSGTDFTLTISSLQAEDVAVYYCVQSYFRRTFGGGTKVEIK | 37 |

What does the data say about its Cell Binding hCD3 (FOB)? Entry: ADI-46375 (antibody, V domains shown, also called Ab38) VH: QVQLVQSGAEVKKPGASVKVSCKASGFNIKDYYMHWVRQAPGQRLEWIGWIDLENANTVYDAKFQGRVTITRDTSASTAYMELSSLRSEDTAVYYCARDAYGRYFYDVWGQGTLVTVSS VL: DIVMTQSPDSLAVSLGERATINCKSSQSLLNARTRKNYLAWYQQKPGQPPKLLIYWASTRESGVPDRFSGSGSGTDFTLTISSLQAEDVAVYYCTQSYFRRTFGGGTKVEIK
48

Next: ADI-46360 (antibody, V domains shown, also called Ab44) VH: QVQLVQSGAEVKKPGASVKVSCKASGFNIKDYYMHWVRQAPGQRPEWIGWIDLENANTVYDAKFQGRVTITRDTSASTAYMELSSLRSEDAAAYYCARDAYGRYFYDVWGQGTLVTVSS VL: DIVMTQSPDSLAVSLGERATINCKSSQSLLNARTGKNYLAWYQQKPGQPPELLIYWASTRESGVPDRFSGSGSGTDFTLTISSLQAEDVAVYYCTQSYFRRTFGGGTKVEIK
40

Next: ADI-45970 (antibody, V domains shown, also called Ab6) VH: QVQLVQSGAEVKKPGASVKVSCKASGFNVKDYYMHWVRQAPGQRLEWIGWIDLENANTVYDAKFQGRVTITRDTSASTAYMELSSLRSEDTAVYYCARDAYGRYFYDVWGQGTLVTVSS VL: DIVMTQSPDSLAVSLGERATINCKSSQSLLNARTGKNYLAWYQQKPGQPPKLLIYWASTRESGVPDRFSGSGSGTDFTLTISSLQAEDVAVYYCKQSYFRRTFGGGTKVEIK
53

Next: ADI-45977 (antibody, V domains shown, also called Ab14) VH: QVQLVQSGAEVKKPGASVKVSCKASGFNIKDYYMHWVRQAPGQRLEWIGWIDLENANTVYDAKLQGRVTITRDTSASTAYMELSSLGSEDTAVYYCARDAYGRYFYDVWGQGTLVTVSS VL: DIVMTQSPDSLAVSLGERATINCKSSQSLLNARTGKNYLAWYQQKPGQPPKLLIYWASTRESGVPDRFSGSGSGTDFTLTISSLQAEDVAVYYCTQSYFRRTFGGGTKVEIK
59

Next: ADI-45982 (antibody, V domains shown, also called Ab19) VH: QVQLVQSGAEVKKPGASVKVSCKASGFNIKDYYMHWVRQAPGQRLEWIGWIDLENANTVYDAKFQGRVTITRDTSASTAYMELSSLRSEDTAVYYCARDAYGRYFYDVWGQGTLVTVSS VL: DIVMTQSPDSLAVSLGERATINCKSSQSLLNARTGKNYLAWYQQKPGQPPKLLIYWASTRENGVPDRFSGSGSGTDFTLTISSLQAEDVAVYYCTQSYFRRTFGGGTKVEIK
24
